All figures here come from the supplement of paper PMC11061612.

Test system: IGROV-1 (Ovarian Carcinoma)
Test Method Notes: Bliss excess, mean over the matrix (fraction); higher = more synergy;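 also: after 72 h of two-drug dosing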
Quantity Kind: Bliss excess

>  <Compound>
COc1cccc(OCCCN)c1-c1cc(Nc2cnc(C#N)cn2)n[nH]1 [Prexasertib] + C[C@@H]1COCCN1C2=NC(=NC(=C2)C3(CC3)[S@](=N)(=O)C)C4=C5C=CNC5=NC=C4 [AZD6738] (first compound max 1 µM, 7x7, partner max 10 µM)

>  <Target Of Assay>
IGROV-1 (Ovarian Carcinoma)

>  <Quantity Kind>
Bliss excess

>  <Reported Measurement>
-0.0567

$$$$
>  <Compound>
NC1(C(=O)N[C@@H](CCO)c2ccc(Cl)cc2)CCN(c2ncnc3[nH]ccc23)CC1 [Capivasertib] + CCN(CCO)CCCOc1ccc2c(Nc3cc(CC(=O)Nc4cccc(F)c4)[nH]n3)ncnc2c1 [AZD2811] (first compound max 10 µM, 7x7, partner max 1 µM)

>  <Target Of Assay>
IGROV-1 (Ovarian Carcinoma)

>  <Quantity Kind>
Bliss excess

>  <Reported Measurement>
-0.0632

$$$$
>  <Compound>
CC1(C)CCC(CN2CCN(c3ccc(C(=O)NS(=O)(=O)c4ccc(NCC5CCOCC5)c([N+](=O)[O-])c4)c(Oc4cnc5[nH]ccc5c4)c3)CC2)=C(c2ccc(Cl)cc2)C1 [Venetoclax] + C[C@@H](Nc1cc(F)cc(F)c1)c1cc(C(=O)N(C)C)cc2c(=O)cc(N3CCOCC3)oc12 [AZD8186] (first compound max 1 µM, 7x7, partner max 3 µM)

>  <Target Of Assay>
IGROV-1 (Ovarian Carcinoma)

>  <Quantity Kind>
Bliss excess

>  <Reported Measurement>
0.0084

$$$$
>  <Compound>
Cc1c2c(nn1C)CSCc1cc(n(C)n1)CSc1cc(c3ccccc3c1)OCCCc1c(C(=O)O)n(C)c3c-2c(Cl)ccc13 [AZD5991] + Cc1cc2ncnn2cc1Nc1ncc2c(n1)n(C1CCOCC1)c(=O)n2C [AZD7648] (first compound max 1 µM, 7x7, partner max 10 µM)

>  <Target Of Assay>
IGROV-1 (Ovarian Carcinoma)

>  <Quantity Kind>
Bliss excess

>  <Reported Measurement>
-0.103

$$$$
>  <Compound>
COc1nnc2ccc(N3CCC(c4ccc(OCCN5CCN(C)C(=O)[C@H]5C)cc4)CC3)nn12 [AZD5153] + Cn1cnc2c(F)c(Nc3ccc(Br)cc3Cl)c(C(=O)NOCCO)cc21 [Selumetinib] (first compound max 1 µM, 7x7, partner max 10 µM)

>  <Target Of Assay>
IGROV-1 (Ovarian Carcinoma)

>  <Quantity Kind>
Bliss excess

>  <Reported Measurement>
-0.0391

$$$$
>  <Compound>
C=CCn1c(=O)c2cnc(Nc3ccc(N4CCN(C)CC4)cc3)nc2n1-c1cccc(C(C)(C)O)n1 [AZD1775] + C1CN(CCC1(C(=O)N[C@@H](CCO)C2=CC=C(C=C2)Cl)N)C3=NC=NC4=C3C=CN4 [Capivasertib] (first compound max 3 µM, partner max 3 µM)

>  <Target Of Assay>
IGROV-1 (Ovarian Carcinoma)

>  <Quantity Kind>
Bliss excess

>  <Reported Measurement>
-0.0435

$$$$
>  <Compound>
COc1cc2ncnc(Nc3ccc(F)c(Cl)c3)c2cc1OCCCN1CCOCC1 [Gefitinib] + CC(C)n1c(=O)n(C)c2cnc3cc(F)c(-c4ccc(OCCCN5CCCCC5)nc4)cc3c21 [AZD1390] (first compound max 10 µM, 7x7, partner max 0.3 µM)

>  <Target Of Assay>
IGROV-1 (Ovarian Carcinoma)

>  <Quantity Kind>
Bliss excess

>  <Reported Measurement>
-0.0824

$$$$

* * *

System: GRANTA-519 (B-Cell Non-Hodgkin's Lymphoma)
Test Method Notes: Bliss excess, mean over the matrix (fraction); higher = more synergy

>  <Molecule>
CC(=O)c1c(C)c2cnc(Nc3ccc(N4CCNCC4)cn3)nc2n(C2CCCC2)c1=O [Palbociclib] + CC1(C)CCC(CN2CCN(c3ccc(C(=O)NS(=O)(=O)c4ccc(NCC5CCOCC5)c([N+](=O)[O-])c4)c(Oc4cnc5[nH]ccc5c4)c3)CC2)=C(c2ccc(Cl)cc2)C1 [Venetoclax] (first compound max 10 µM, 7x7, partner max 1 µM)

>  <Bliss excess>
0.0884

$$$$
>  <Molecule>
NC1(C(=O)N[C@@H](CCO)c2ccc(Cl)cc2)CCN(c2ncnc3[nH]ccc23)CC1 [Capivasertib] + CC(=O)c1c(C)c2cnc(Nc3ccc(N4CCNCC4)cn3)nc2n(C2CCCC2)c1=O [Palbociclib] (first compound max 10 µM, 7x7, partner max 10 µM)

>  <Bliss excess>
-0.0273

$$$$
>  <Molecule>
CC1(C)CCC(CN2CCN(c3ccc(C(=O)NS(=O)(=O)c4ccc(NCC5CCOCC5)c([N+](=O)[O-])c4)c(Oc4cnc5[nH]ccc5c4)c3)CC2)=C(c2ccc(Cl)cc2)C1 [Venetoclax] + C1CN(CCC1(C(=O)N[C@@H](CCO)C2=CC=C(C=C2)Cl)N)C3=NC=NC4=C3C=CN4 [Capivasertib] (first compound max 1 µM, 7x7, partner max 3 µM)

>  <Bliss excess>
0.0036

$$$$
>  <Molecule>
COc1nnc2ccc(N3CCC(c4ccc(OCCN5CCN(C)C(=O)[C@H]5C)cc4)CC3)nn12 [AZD5153] + CCN(CCO)CCCOc1ccc2c(Nc3cc(CC(=O)Nc4cccc(F)c4)[nH]n3)ncnc2c1 [AZD2811] (first compound max 1 µM, 7x7, partner max 1 µM)

>  <Bliss excess>
0.0771

$$$$
>  <Molecule>
C[C@@H](c1ccc2nccn2c1)n1nnc2ncc(-c3cnn(C)c3)nc21 [Savolitinib] + CC1(C)CCC(CN2CCN(c3ccc(C(=O)NS(=O)(=O)c4ccc(NCC5CCOCC5)c([N+](=O)[O-])c4)c(Oc4cnc5[nH]ccc5c4)c3)CC2)=C(c2ccc(Cl)cc2)C1 [Venetoclax] (first compound max 1 µM, 7x7, partner max 1 µM)

>  <Bliss excess>
-0.0822

$$$$
>  <Molecule>
CS(=O)(=O)CCNCc1ccc(-c2ccc3ncnc(Nc4ccc(OCc5cccc(F)c5)c(Cl)c4)c3c2)o1 [Lapatinib] + C[C@@H](Oc1cc(-c2cnn(C3CCNCC3)c2)cnc1N)c1c(Cl)ccc(F)c1Cl [Crizotinib] (first compound max 10 µM, 7x7, partner max 10 µM)

>  <Bliss excess>
0.0192

$$$$

* * *

Known Bliss excess of a selection of molecules
System: NCI-H2170 (Squamous Cell Lung Carcinoma)
Test Method Notes: Bliss excess, mean over the matrix (fraction); higher = more synergy

>  <Molecule>
C[C@@H](c1ccc2nccn2c1)n1nnc2ncc(-c3cnn(C)c3)nc21 [Savolitinib] + CN(CC[C@H](CSC1=CC=CC=C1)NC2=C(C=C(C=C2)S(=O)(=O)NC(=O)C3=CC=C(C=C3)N4CCC(CC4)[C@H](C5=CC=CC=C5C6=CC=C(C=C6)Cl)O)S(=O)(=O)C(F)(F)F)CCO [AZD4320] (first compound max 1 µM, 7x7, partner max 1 µM)

>  <Bliss excess>
-0.0589

$$$$
>  <Molecule>
Cc1nc(Nc2ncc(C(=O)Nc3c(C)cccc3Cl)s2)cc(N2CCN(CCO)CC2)n1 [Dasatinib] + CC(=O)Nc1cccc(-n2c(=O)n(C3CC3)c(=O)c3c(Nc4ccc(I)cc4F)n(C)c(=O)c(C)c32)c1 [Trametinib] (first compound max 2 µM, 7x7, partner max 1 µM)

>  <Bliss excess>
-0.0593

$$$$
>  <Molecule>
CN(CCO)CC[C@H](CSc1ccccc1)Nc1ccc(S(=O)(=O)NC(=O)c2ccc(N3CCC([C@@H](O)c4ccccc4-c4ccc(Cl)cc4)CC3)cc2)cc1S(=O)(=O)C(F)(F)F [AZD4320] + Cn1cnc2c(F)c(Nc3ccc(Br)cc3Cl)c(C(=O)NOCCO)cc21 [Selumetinib] (first compound max 1 µM, 7x7, partner max 3 µM)

>  <Bliss excess>
-0.0497

$$$$

* * *

Test system: NCI-H2023 (Non-Small Cell Lung Carcinoma)
Test Method Notes: Bliss excess, mean over the matrix (fraction); higher = more synergy
Quantity Kind: Bliss excess

>  <Compound>
CN(CCO)CC[C@H](CSc1ccccc1)Nc1ccc(S(=O)(=O)NC(=O)c2ccc(N3CCC([C@@H](O)c4ccccc4-c4ccc(Cl)cc4)CC3)cc2)cc1S(=O)(=O)C(F)(F)F [AZD4320] + C[C@@H](Nc1cc(F)cc(F)c1)c1cc(C(=O)N(C)C)cc2c(=O)cc(N3CCOCC3)oc12 [AZD8186] (first compound max 1 µM, 7x7, partner max 3 µM)

>  <Reported Measurement>
-0.034

$$$$
>  <Compound>
O=C(c1cc(Cc2n[nH]c(=O)c3ccccc23)ccc1F)N1CCN(C(=O)C2CC2)CC1 [Olaparib] + Cc1c2c(nn1C)CSCc1cc(n(C)n1)CSc1cc(c3ccccc3c1)OCCCc1c(C(=O)O)n(C)c3c-2c(Cl)ccc13 [AZD5991] (first compound max 10 µM, 7x7, partner max 1 µM)

>  <Reported Measurement>
-0.0502

$$$$
>  <Compound>
Cc1c2c(nn1C)CSCc1cc(n(C)n1)CSc1cc(c3ccccc3c1)OCCCc1c(C(=O)O)n(C)c3c-2c(Cl)ccc13 [AZD5991] + CCN(CCO)CCCOc1ccc2c(Nc3cc(CC(=O)Nc4cccc(F)c4)[nH]n3)ncnc2c1 [AZD2811] (first compound max 1 µM, 7x7, partner max 1 µM)

>  <Reported Measurement>
0.0307

$$$$
